- measured_on: human GAL9 of the human PBMC cultures (human)
- protocol_notes: cell-based or functional assay
So I've got a bunch of binders here, and I need their TNF-α 72 hr, Fold change, Average values.
Express the result in fold but write the number alone.

Give me measured TNF-α 72 hr, Fold change, Average, please, for this binder: P9-37 (antibody, IgG1, V domains shown, Tested as bivalent monospecific native human full-length IgG1; also called ABS clone P9-37) VH: EVQLVESGGGLVQPGGSLRLSCAASGFTFWKYGIHWVRQAPGKGLEWVAYIYPAGGITSYADSVKGRFTISADTSKNTAYLQMNSLRAEDTAVYYCARSDYYSGMGMDYWGQGTLVTVSS VL: DIQMTQSPSSLSASVGDRVTITCRASQSVSSAVAWYQQKPGKAPKLLIYSASSLYSGVPSRFSGSRSGTDFTLTISSLQPEDFATYYCQQYYPSPSTFGQGTKVEIKR 0.55

Give me measured TNF-α 72 hr, Fold change, Average, please, for this binder: P9-34 (antibody, IgG1, V domains shown) VH: EVQLVESGGGLVQPGGSLRLSCAASGFTFSTYFIHWVRQAPGKGLEWVAYIYPQGGYTYYADSVKGRFTISADTSKNTAYLQMNSLRAEDTAVYYCARQSYPGVFDYWGQGTLVTVSS VL: DIQMTQSPSSLSASVGDRVTITCRASQSVSSAVAWYQQKPGKAPKLLIYSASSLYSGVPSRFSGSRSGTDFTLTISSLQPEDFATYYCQQWTIALTTFGQGTKVEIKR 0.74

Give me measured TNF-α 72 hr, Fold change, Average, please, for this binder: P9-57 (antibody, IgG1, V domains shown, Tested as bivalent monospecific native human full-length IgG1; also called ABS clone P9-57) VH: EVQLVESGGGLVQPGGSLRLSCAASGFTFSSYYIHWVRQAPGKGLEWVATIYPSGGYTYYADSVKGRFTISADTSKNTAYLQMNSLRAEDTAVYYCARYSYPGVLDYWGQGTLVTVSS VL: DIQMTQSPSSLSASVGDRVTITCRASQSVSSAVAWYQQKPGKAPKLLIYSASSLYSGVPSRFSGSRSGTDFTLTISSLQPEDFATYYCQQSSSFLWTFGQGTKVEIKR 0.54

Give me measured TNF-α 72 hr, Fold change, Average, please, for this binder: P9-11 (antibody, IgG1, V domains shown, Tested as bivalent monospecific native human full-length IgG1; also called ABS clone P9-11) VH: EVQLVESGGGLVQPGGSLRLSCAASGFTFSSYYIHWVRQAPGKGLEWVAYISPSGGYTYYADSVKGRFTISADTSKNTAYLQMNSLRAEDTAVYYCARGAVLYSSAMDYWGQGTLVTVSS VL: DIQMTQSPSSLSASVGDRVTITCRASQSVSSAVAWYQQKPGKAPKLLIYSASSLYSGVPSRFSGSRSGTDFTLTISSLQPEDFATYYCQQYYPSPSTFGQGTKVEIKR 0.64

Give me measured TNF-α 72 hr, Fold change, Average, please, for this binder: P9-24 (antibody, IgG1, V domains shown, Tested as bivalent monospecific native human full-length IgG1; also called ABS clone P9-24) VH: EVQLVESGGGLVQPGGSLRLSCAASGFTFSSYFIHWVRQAPGKGLEWVASIYPTSHSTSYADSVKGRFTISADTSKNTAYLQMNSLRAEDTAVYYCARLGYPGVMDYWGQGTLVTVSS VL: DIQMTQSPSSLSASVGDRVTITCRASQSVSSAVAWYQQKPGKAPKLLIYSASSLYSGVPSRFSGSRSGTDFTLTISSLQPEDFATYYCQQVDSRLATFGQGTKVEIKR 0.54
